- test summary: small-molecule microarray binders of probe aNog, primary screen, biochemical, biotinylated probe, 635/667 nm fluorescence (AID 1115);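 further: probe is biotinylated aNog protein used at 0.15 µg/mL for 1 h at 4 C; z-score combines 667 nm fluorescence of each spot with its signal to noise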
- measurement conditions: higher = more signal
value kind: composite z-score

These recorded examples may help you get a feel for the data.
compound: C=CCNC(=O)[C@@H]1[C@H]2C(=O)O[C@H](c3ccccc3)[C@H](c3ccccc3)N2[C@H](c2ccccc2OCCO)[C@@]12C(=O)N(C(=O)OCCOC)c1ccc(C#CC3=CCCCC3)cc12
composite z-score: 0.394
//
compound: O=C1O[C@@H](c2ccccc2)[C@@H](c2ccccc2)N2[C@@H](c3ccccc3OCCO)[C@]3(C(=O)Nc4ccc(C#CCCO)cc43)[C@@H](C(=O)N3CCN(c4ncccn4)CC3)[C@H]12
composite z-score: -0.332
//
compound: O=C1NC(=O)C2C1C=CC(C(O)c1ccc(Br)cc1)N2Nc1ccccn1 (configuration not stated)
composite z-score: 0.356
//
compound: CCOC(=O)C1=CC[C@@H](c2ccccc2C(F)(F)F)N(S(=O)(=O)c2ccc(C)cc2)C1
composite z-score: -0.395
//
compound: CCCC[C@@H]1C[C@H]1[C@@H](NC(=O)c1ccccc1)c1ccc(Cl)cc1
composite z-score: 0.253

# batch size: 2; output composite z-score per entry
1. C=C(C(=O)CC[C@H](OC(C)=O)c1cccc(OCCO)c1)C(C)C
2. CCOC(=O)C[C@H]1[C@H](OC(=O)c2ccccc2-c2ccccc2)[C@@H](NC(=O)CC(C)C)c2cc(OCCCO)ccc2N1C(=O)c1ccc2ccccc2n1

Output:
1: -0.107; 2: -0.134
